These entries and their values trace back to the supplement of paper PMC10646978.

// reported IRF reporter for each item listed
Tested on: RAW-Dual (murine macrophage reporter line)
Experiment: IRF reporter (Lucia luciferase) activity fold change vs agonist alone; higher = enhanced IRF activity
Details: modulator concentration 10 µM; agonist: 3'3'-cGAMP 10 ug/mL
The answer should be a number; do not append a unit.

Sample answers from the record:
The reported RAW-Dual (murine macrophage reporter line) IRF reporter of "CN(C)C(=O)COC(=O)Cc1ccc(OC(=O)c2ccc(NC(=N)N)cc2)cc1.CS(=O)(=O)O" is 1.07

The reported RAW-Dual (murine macrophage reporter line) IRF reporter of "O=C(Nc1c(Cl)cncc1Cl)c1ccc(OC(F)F)c(OCC2CC2)c1" is 0.804

The reported RAW-Dual (murine macrophage reporter line) IRF reporter of "CCOc1ccccc1OCCOCCOc1ccc(Br)cc1Cl" is 0.876

The reported RAW-Dual (murine macrophage reporter line) IRF reporter of "Cc1ncsc1C(=O)NC1CCC(F)(F)CC1" is 0.68

The reported RAW-Dual (murine macrophage reporter line) IRF reporter of CC(c1ccccc1)c1nnc(NC(=O)c2ccco2)s1 (stereo not drawn) is 0.906

The reported RAW-Dual (murine macrophage reporter line) IRF reporter of "O=C(NNC(=O)c1sc2cc(F)ccc2c1Cl)Nc1ccc(Cl)cc1" is 0.926

The reported RAW-Dual (murine macrophage reporter line) IRF reporter of "COc1ccc2c(c1)c(CC(=O)O)c(C)n2C(=O)c1ccc(Cl)cc1" is 1.05

The reported RAW-Dual (murine macrophage reporter line) IRF reporter of "CC(=O)N1CCC(Cn2ccc3cccnc32)CC1" is 0.949

***
The reported RAW-Dual (murine macrophage reporter line) IRF reporter of CC1=CC(C)C2(COC(c3cccnc3)OC2)C(C)C1 (stereo not drawn) is 0.967

The reported RAW-Dual (murine macrophage reporter line) IRF reporter of "COc1ccc(CC(=O)Nc2nc(CSCc3ccc(F)cc3)cs2)cc1" is 0.832

The reported RAW-Dual (murine macrophage reporter line) IRF reporter of "Cc1c(C(=O)OC(C)C)sc(NC(=O)C(F)(F)F)c1C(=O)OC(C)C" is 0.781

The reported RAW-Dual (murine macrophage reporter line) IRF reporter of "CCOc1cc2ncc(C#N)c(Nc3ccc(OCc4ccccn4)c(Cl)c3)c2cc1NC(=O)/C=C/CN(C)C" is 0.694

The reported RAW-Dual (murine macrophage reporter line) IRF reporter of "CCc1cc2c(-c3ccccc3)cc(=O)oc2cc1OC(C)=O" is 0.974

The reported RAW-Dual (murine macrophage reporter line) IRF reporter of "Cc1cc(C#N)cc(C)c1Oc1nc(Nc2ccc(C#N)cc2)nc(N)c1Br" is 1.39

----------
// reported NF-kB reporter for each item listed
Tested on: RAW-Dual (murine macrophage reporter line)
Assay: NF-kB reporter (SEAP) activity fold change vs agonist alone; higher = enhanced NF-kB activity
Settings: modulator concentration 10 µM; agonist: MPLA […]
The answer should be a number; do not append a unit.

The reported RAW-Dual (murine macrophage reporter line) NF-kB reporter of "CCOC(=O)C1=C(C)N(c2ccc(OC)cc2)C(=O)C1=Cc1ccc(C(=O)O)cc1" is 0.984

***
The reported RAW-Dual (murine macrophage reporter line) NF-kB reporter of CCN1CCN(CC(O)COc2ccc(C(C)(C)C)cc2C(C)(C)C)CC1.Cl.Cl (stereo not given) is 2.1

The reported RAW-Dual (murine macrophage reporter line) NF-kB reporter of CCN(CC)c1ccc(C2Nc3ccccc3-c3nnc(SC)nc3O2)c(OC)c1 (stereo not given) is 0.985

The reported RAW-Dual (murine macrophage reporter line) NF-kB reporter of "CN1CCN(c2ccc(-c3cccc(NC(=O)c4ccc5ccccc5c4)c3)nn2)CC1" is 0.301

The reported RAW-Dual (murine macrophage reporter line) NF-kB reporter of "O=c1c(O)c(-c2ccc(O)c(O)c2)oc2cc(O)cc(O)c12" is 1.47

The reported RAW-Dual (murine macrophage reporter line) NF-kB reporter of "O=C(COc1cccc2ccccc12)NCc1ccncc1" is 1.02

The reported RAW-Dual (murine macrophage reporter line) NF-kB reporter of "CCN1CCN(Cc2c(O)ccc3c2OC(=Cc2ccc(C)cc2)C3=O)CC1" is 1.2

The reported RAW-Dual (murine macrophage reporter line) NF-kB reporter of "COc1ccc(OC)c(Nc2nc(-c3c(C)nc4sccn34)cs2)c1" is 1.21

The reported RAW-Dual (murine macrophage reporter line) NF-kB reporter of CC(C(=O)O)c1ccc(CC2CCCC2=O)cc1 (stereo not given) is 0.906

The reported RAW-Dual (murine macrophage reporter line) NF-kB reporter of CCC(C)n1ncn(-c2ccc(N3CCN(c4ccc(OC[C@H]5CO[C@](Cn6cncn6)(c6ccc(Cl)cc6Cl)O5)cc4)CC3)cc2)c1=O (stereo not given in full) is 1.1

----------
Test system: RAW-Dual (murine macrophage reporter line)
Assay: IRF reporter (Lucia luciferase) activity fold change vs agonist alone; higher = enhanced IRF activity
Conditions: modulator concentration 10 µM; agonist: MPLA […]
Tick label 1 if IRF reporter is 1 or greater. Tick label 0 if IRF reporter is less than 1.

Known results for molecules:
Request: Hi, just wondering whether COC(C)(CNC(=O)c1cc2ccccc2[nH]1)c1ccccc1F (centres undefined) shows IRF reporter of 1 or higher.
Result: label 1

Request: Hi, just wondering whether "O=c1oc2cc(O)ccc2c2ccccc12" shows IRF reporter of 1 or higher.
Result: label 1

Request: Hi, just wondering whether "CC(=O)Nc1ccc(C(=O)CSc2nnc[nH]2)cc1" shows IRF reporter of 1 or higher.
Result: label 1

Request: Hi, just wondering whether "CCNC1(C(N)=O)CCN(c2ncnc3c2nc(-c2ccccc2Cl)n3-c2ccc(Cl)cc2)CC1.Cl" shows IRF reporter of 1 or higher.
Result: label 0

Request: Hi, just wondering whether "COCC(=O)Nc1c(C(=O)Nc2ccc(OC(F)(F)F)cc2)oc2ccccc12" shows IRF reporter of 1 or higher.
Result: label 1

# ---- query molecule ----
Request: Hi, just wondering whether "O=C(O)c1ccc2c(c1)nc(Nc1cccc(Cl)c1)c1ccncc12" shows IRF reporter of 1 or higher.
Result: label 0

----------
Test system: RAW-Dual (murine macrophage reporter line)
Assay: NF-kB reporter (SEAP) activity fold change vs agonist alone; higher = enhanced NF-kB activity
Settings: modulator concentration 10 µM; agonist: LPS 0.1 ug/mL
Tick TRUE if NF-kB reporter is 1 or greater. Tick FALSE if NF-kB reporter is less than 1.

Request: Hi, just wondering whether "FC(F)(F)c1nnc2ccc(NC3CCN(c4ncnc5c4CCCC5)CC3)nn12" shows NF-kB reporter of 1 or higher.
Result: TRUE

Request: Hi, just wondering whether "Cc1cccc(NC(=O)C(=Cc2ccco2)NC(=O)c2ccccc2I)c1" shows NF-kB reporter of 1 or higher.
Result: TRUE

Request: Hi, just wondering whether "Cc1ccc(N2C(=O)C(=Cc3cccc([N+](=O)[O-])c3)SC2=S)cc1" shows NF-kB reporter of 1 or higher.
Result: FALSE

Request: Hi, just wondering whether "CC(C)(C)c1ccc(C(=O)Nc2nc3ccc([N+](=O)[O-])cc3s2)cc1" shows NF-kB reporter of 1 or higher.
Result: TRUE

Request: Hi, just wondering whether "Cc1cc(O)c(C(C)C)cc1NC(=O)c1cc(C(C)(C)C)oc1C" shows NF-kB reporter of 1 or higher.
Result: FALSE

Request: Hi, just wondering whether "C=CCc1ccc(OCCCOc2ccccc2C(C)=O)c(OC)c1" shows NF-kB reporter of 1 or higher.
Result: TRUE

***
Request: Hi, just wondering whether "Br.O=S(=O)(c1ccc(-c2csc(Nc3ccc(Br)cc3)n2)cc1)N1CCCCC1" shows NF-kB reporter of 1 or higher.
Result: TRUE

Request: Hi, just wondering whether "O=C(NCCO)c1cc(C(=O)NCCO)cc(C(=O)NCCO)c1" shows NF-kB reporter of 1 or higher.
Result: TRUE

----------
Tested on: RAW-Dual (murine macrophage reporter line)
Test: viability score (confluency relative to resting cells, overnight) (fraction); higher = more viable, active = viable (0.7 or more)
Details: modulator concentration 10 µM
// reported viability score for each item listed
The answer should be a number; do not append a unit.

Sample answers from the record:
Notebook: "Cc1ccc2[nH]c3nc(C)cc(C)c3c(=O)c2c1" , viability score read as 0.704

Notebook: CCOC(=O)CC(C)(O)P(=O)(OCC)OCC (centres undefined) , viability score read as 1

Notebook: "COc1ccc(-c2csc(NC(=O)CCc3ccccc3)c2C(=O)O)cc1" , viability score read as 1.02

Notebook: "CCOc1ccccc1NC(=O)Nc1ccc2c(c1)CC(=O)N2CC" , viability score read as 0.998

Notebook: "S=C(NCCN1CCOCC1)Nc1ccc(Cl)cc1" , viability score read as 0.986

***
Notebook: "CC(C)(C)c1ccc(=O)n(CC2CN(S(C)(=O)=O)C2)n1" , viability score read as 1.01

Notebook: "Cc1nnc(C)n1N=Cc1ccc(Cl)c([N+](=O)[O-])c1" , viability score read as 0.99

Notebook: "CN(C)CCC=C1c2ccccc2COc2ccccc21.Cl" , viability score read as 0.978

Notebook: "NS(=O)(=O)c1ccc(C(=O)O)cc1" , viability score read as 0.994

Notebook: "O=C(NC(=S)c1c(-c2ccccc2)cc2ccccn12)c1ccccc1" , viability score read as 1.01

Notebook: "CCOC(=O)c1cnn(CCOc2ccccc2)c1N" , viability score read as 1

Notebook: "Cc1oncc1C(=O)Nc1ccc(C(F)(F)F)cc1" , viability score read as 0.357

Notebook: "CN(C)CCCN1c2ccccc2CCc2ccccc21.Cl" , viability score read as 0.883

Notebook: CSCCC(NC(C)=O)C(=O)N1CCC(n2c(C)nc3ccccc32)C1 (centres undefined) , viability score read as 1

Notebook: "NC(=O)[C@@H](CCC(F)(F)F)N(Cc1ccc(-c2ncon2)cc1F)S(=O)(=O)c1ccc(Cl)cc1" , viability score read as 0.997

Notebook: "O=C(C=Cc1cccc([N+](=O)[O-])c1)NCCc1ccccc1" , viability score read as 0.99

Notebook: "COC(=O)C1=C(C)N(Cc2ccccc2)C(=O)C1=Cc1ccc(C)cc1" , viability score read as 0.998

Notebook: "CN(C)S(=O)(=O)N1CCC(CNC(=O)NC2CCCC2)CC1" , viability score read as 1

Notebook: CC(Cc1ccc(O)c(O)c1)(NN)C(=O)O (centres undefined) , viability score read as 1

Notebook: "O=C(NC1CCC(F)(F)CC1)c1cc(Br)cs1" , viability score read as 0.999
